// provenance: patent US20240101576A1

# subject-of-test: EGFR exon 20 NPG Ins D770_N771 (Ba/F3 cells) (Homo sapiens, UniProt P00533, INS770NPG)
# Construct: expressed in transfected cells; host or cells: Ba/F3 (murine pro-B cells), retroviral transduction, puromycin selection, IL3-independent pool
# Sequence (P00533 with tags, fused parts or gaps INS770NPG): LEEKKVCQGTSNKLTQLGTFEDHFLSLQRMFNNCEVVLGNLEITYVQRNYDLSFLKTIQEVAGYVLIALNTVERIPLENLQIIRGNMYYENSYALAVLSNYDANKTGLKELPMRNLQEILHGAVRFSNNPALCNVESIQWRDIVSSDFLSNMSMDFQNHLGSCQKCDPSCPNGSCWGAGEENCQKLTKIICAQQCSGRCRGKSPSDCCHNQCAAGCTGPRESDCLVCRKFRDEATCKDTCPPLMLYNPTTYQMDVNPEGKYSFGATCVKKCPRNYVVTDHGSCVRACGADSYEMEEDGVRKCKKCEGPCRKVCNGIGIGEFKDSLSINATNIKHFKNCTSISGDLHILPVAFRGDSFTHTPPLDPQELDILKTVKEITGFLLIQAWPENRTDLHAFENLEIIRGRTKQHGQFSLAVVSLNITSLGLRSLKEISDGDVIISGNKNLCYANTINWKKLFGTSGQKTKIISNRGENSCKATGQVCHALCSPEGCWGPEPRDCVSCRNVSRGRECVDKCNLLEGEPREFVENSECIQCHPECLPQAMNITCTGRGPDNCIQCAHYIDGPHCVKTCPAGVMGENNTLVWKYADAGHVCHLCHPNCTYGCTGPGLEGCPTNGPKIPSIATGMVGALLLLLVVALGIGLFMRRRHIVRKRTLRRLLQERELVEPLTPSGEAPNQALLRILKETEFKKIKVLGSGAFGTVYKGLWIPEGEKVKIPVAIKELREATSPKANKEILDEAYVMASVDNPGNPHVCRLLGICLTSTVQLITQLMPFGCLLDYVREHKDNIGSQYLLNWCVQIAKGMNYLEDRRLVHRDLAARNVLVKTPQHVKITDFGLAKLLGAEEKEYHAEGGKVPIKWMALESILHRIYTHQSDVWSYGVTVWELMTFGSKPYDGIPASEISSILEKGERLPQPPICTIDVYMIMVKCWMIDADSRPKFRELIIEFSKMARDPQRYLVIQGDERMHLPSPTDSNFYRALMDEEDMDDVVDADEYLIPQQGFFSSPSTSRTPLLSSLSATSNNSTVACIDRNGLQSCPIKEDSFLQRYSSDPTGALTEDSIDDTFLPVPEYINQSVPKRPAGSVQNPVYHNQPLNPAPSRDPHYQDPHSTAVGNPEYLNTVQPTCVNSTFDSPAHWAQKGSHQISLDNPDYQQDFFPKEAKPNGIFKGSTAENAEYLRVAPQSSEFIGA
# test: Inhibitor activity on EGFR-dependent cell growth (CellTiter-Glo, 72 h), Ba/F3 EGFR exon 20 NPG Ins
# Assay type: cell-based
# experimental-parameters: read-out: BaF3 NPG IC50
# reported IC50; entries follow
endpoint: IC50

smiles-input: Nc1nccc(-c2[nH]c3c(c2Nc2cccc(Cl)c2F)C(=O)NCC3)n1
subject-of-test: EGFR exon 20 NPG Ins D770_N771 (Ba/F3 cells) (Homo sapiens, UniProt P00533, INS770NPG)
endpoint: IC50
test-value: < 100 nM
--
smiles-input: COc1c(Cl)cccc1Nc1c(-c2ccnc(NC3CC3)n2)[nH]c2c1C(=O)NCC2
subject-of-test: EGFR exon 20 NPG Ins D770_N771 (Ba/F3 cells) (Homo sapiens, UniProt P00533, INS770NPG)
endpoint: IC50
test-value: > 1000 nM
--
smiles-input: COc1c(Cl)cccc1Nc1c(-c2ccnc3ccc(OCC4CC(F)(F)C4)nc23)[nH]c2c1C(=O)NCC2
subject-of-test: EGFR exon 20 NPG Ins D770_N771 (Ba/F3 cells) (Homo sapiens, UniProt P00533, INS770NPG)
endpoint: IC50
test-value: 100 to 1000 nM
--
smiles-input: COc1c(Cl)cccc1Nc1c(-c2ccnc(Nc3ccn(CC(F)F)n3)n2)[nH]c2c1C(=O)NCC2
subject-of-test: EGFR exon 20 NPG Ins D770_N771 (Ba/F3 cells) (Homo sapiens, UniProt P00533, INS770NPG)
endpoint: IC50
test-value: < 100 nM

====

# subject-of-test: EGFR L858R (Ba/F3 cells) (Homo sapiens, UniProt P00533, L858R)
# Construct: expressed in transfected cells; host or cells: Ba/F3 (murine pro-B cells), retroviral transduction, puromycin selection, IL3-independent pool
# Sequence (P00533 25-1210 L858R): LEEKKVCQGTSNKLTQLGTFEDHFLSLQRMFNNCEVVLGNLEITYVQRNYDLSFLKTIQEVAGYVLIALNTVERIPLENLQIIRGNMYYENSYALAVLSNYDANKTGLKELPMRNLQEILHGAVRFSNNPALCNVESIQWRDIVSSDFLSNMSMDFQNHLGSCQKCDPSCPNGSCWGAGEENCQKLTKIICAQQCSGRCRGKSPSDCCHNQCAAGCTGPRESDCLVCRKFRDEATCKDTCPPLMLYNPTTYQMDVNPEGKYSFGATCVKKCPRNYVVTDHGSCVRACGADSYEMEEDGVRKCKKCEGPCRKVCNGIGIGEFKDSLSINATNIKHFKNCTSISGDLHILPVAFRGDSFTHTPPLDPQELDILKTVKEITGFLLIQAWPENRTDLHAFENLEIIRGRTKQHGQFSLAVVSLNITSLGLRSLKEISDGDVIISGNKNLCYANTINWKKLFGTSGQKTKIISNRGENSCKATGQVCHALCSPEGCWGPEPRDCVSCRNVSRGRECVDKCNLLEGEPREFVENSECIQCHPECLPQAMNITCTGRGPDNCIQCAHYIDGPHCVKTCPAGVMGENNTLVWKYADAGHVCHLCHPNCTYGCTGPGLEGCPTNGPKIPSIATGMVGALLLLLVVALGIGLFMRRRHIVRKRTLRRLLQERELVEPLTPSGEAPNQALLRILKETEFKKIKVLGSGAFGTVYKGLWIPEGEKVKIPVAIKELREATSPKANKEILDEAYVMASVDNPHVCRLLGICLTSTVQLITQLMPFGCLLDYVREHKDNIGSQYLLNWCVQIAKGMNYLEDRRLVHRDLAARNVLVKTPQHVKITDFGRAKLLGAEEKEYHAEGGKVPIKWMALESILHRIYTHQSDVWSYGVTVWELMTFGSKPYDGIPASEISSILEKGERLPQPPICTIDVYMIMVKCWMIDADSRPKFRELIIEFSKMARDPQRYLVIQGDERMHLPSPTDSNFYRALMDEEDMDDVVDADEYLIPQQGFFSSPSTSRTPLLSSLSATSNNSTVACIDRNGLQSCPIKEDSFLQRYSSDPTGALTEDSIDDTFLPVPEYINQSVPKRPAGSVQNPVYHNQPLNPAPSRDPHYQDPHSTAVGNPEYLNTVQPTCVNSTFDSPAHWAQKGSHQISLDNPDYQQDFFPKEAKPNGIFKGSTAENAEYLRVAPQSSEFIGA
# test: Inhibitor activity on EGFR phosphorylation (pEGFR AlphaLISA, 2 h), Ba/F3 EGFR L858R
# Assay type: cell-based
endpoint: IC50

compound: COc1c(Cl)cccc1Nc1c(-c2ccncc2F)[nH]c2c1C(=O)NC[C@@H]2C[C@H]1COCCO1 [Compound 481]
endpoint: IC50
test-value: < 100 nM

compound: COc1ncc2nccc(-c3[nH]c4c(c3Nc3cccc(F)c3OC)C(=O)NCC4)c2n1 [compound 409]
endpoint: IC50
test-value: < 100 nM

compound: COc1c(F)cccc1Nc1c(-c2ccncn2)[nH]c2c1C(=O)NCC2C[C@H]1COCCO1 (single isomer, unassigned) [Compound 572]
endpoint: IC50
test-value: < 100 nM

compound: COc1c(Cl)cccc1Nc1c(-c2ccncc2F)[nH]c2c1C(=O)NC[C@H]2CC(F)F [Compound 820]
endpoint: IC50
test-value: < 100 nM

compound: COc1c(F)cccc1Nc1c(-c2ccncc2F)[nH]c2c1C(=O)NCC2C[C@@H]1COCCO1 (single isomer, unassigned) [Compound 566]
endpoint: IC50
test-value: < 100 nM

compound: COc1c(Cl)cccc1Nc1c(-c2ccncc2F)[nH]c2c1C(=O)NCC21CCOCC1 [Compound 778]
endpoint: IC50
test-value: < 100 nM

compound: COc1c(F)cccc1Nc1c(-c2ccncc2F)[nH]c2c1C(=O)NC[C@@H]2CC1COCCO1 (stereo in doubt) [Compound 525]
endpoint: IC50
test-value: < 100 nM

compound: COc1c(F)cccc1Nc1c(-c2ccnc3ccc(OC4(C)COC4)nc23)[nH]c2c1C(=O)NCC2 [Compound 788]
endpoint: IC50
test-value: < 100 nM

compound: COCC[C@H]1CNC(=O)c2c1[nH]c(-c1ccncc1F)c2Nc1cccc(Cl)c1OC [Compound 747]
endpoint: IC50
test-value: < 100 nM

compound: COc1ncc2nccc(-c3[nH]c4c(c3Nc3cccc(F)c3C)C(=O)NCC4)c2n1 [Compound 794]
endpoint: IC50
test-value: < 100 nM

compound: COc1c(F)cccc1Nc1c(-c2ccncc2F)[nH]c2c1C(=O)NC[C@H]2CC1COCCO1 (stereo in doubt) [Compound 575]
endpoint: IC50
test-value: < 100 nM

compound: COc1c(Cl)cccc1Nc1c(-c2ccncc2F)[nH]c2c1C(=O)NC[C@@]21CCN(CC(F)F)C1 [compound 822]
endpoint: IC50
test-value: < 100 nM

compound: COCC[C@H]1CNC(=O)c2c1[nH]c(-c1ccncn1)c2Nc1cccc(Cl)c1OC [445b]
endpoint: IC50
test-value: < 100 nM

compound: COc1c(F)cccc1Nc1c(-c2ccnc(C)n2)[nH]c2c1C(=O)NCC2C[C@@H]1COCCO1 (single isomer, unassigned) [Compound 604]
endpoint: IC50
test-value: < 100 nM

compound: COc1c(Cl)cccc1Nc1c(-c2ccncc2F)[nH]c2c1C(=O)NC[C@@H]2C[C@@H]1COCCO1 [Compound 482]
endpoint: IC50
test-value: < 100 nM

====

# subject-of-test: EGFR WT (Ba/F3 cells) (Homo sapiens, UniProt P00533)
# Sequence (P00533 25-1210): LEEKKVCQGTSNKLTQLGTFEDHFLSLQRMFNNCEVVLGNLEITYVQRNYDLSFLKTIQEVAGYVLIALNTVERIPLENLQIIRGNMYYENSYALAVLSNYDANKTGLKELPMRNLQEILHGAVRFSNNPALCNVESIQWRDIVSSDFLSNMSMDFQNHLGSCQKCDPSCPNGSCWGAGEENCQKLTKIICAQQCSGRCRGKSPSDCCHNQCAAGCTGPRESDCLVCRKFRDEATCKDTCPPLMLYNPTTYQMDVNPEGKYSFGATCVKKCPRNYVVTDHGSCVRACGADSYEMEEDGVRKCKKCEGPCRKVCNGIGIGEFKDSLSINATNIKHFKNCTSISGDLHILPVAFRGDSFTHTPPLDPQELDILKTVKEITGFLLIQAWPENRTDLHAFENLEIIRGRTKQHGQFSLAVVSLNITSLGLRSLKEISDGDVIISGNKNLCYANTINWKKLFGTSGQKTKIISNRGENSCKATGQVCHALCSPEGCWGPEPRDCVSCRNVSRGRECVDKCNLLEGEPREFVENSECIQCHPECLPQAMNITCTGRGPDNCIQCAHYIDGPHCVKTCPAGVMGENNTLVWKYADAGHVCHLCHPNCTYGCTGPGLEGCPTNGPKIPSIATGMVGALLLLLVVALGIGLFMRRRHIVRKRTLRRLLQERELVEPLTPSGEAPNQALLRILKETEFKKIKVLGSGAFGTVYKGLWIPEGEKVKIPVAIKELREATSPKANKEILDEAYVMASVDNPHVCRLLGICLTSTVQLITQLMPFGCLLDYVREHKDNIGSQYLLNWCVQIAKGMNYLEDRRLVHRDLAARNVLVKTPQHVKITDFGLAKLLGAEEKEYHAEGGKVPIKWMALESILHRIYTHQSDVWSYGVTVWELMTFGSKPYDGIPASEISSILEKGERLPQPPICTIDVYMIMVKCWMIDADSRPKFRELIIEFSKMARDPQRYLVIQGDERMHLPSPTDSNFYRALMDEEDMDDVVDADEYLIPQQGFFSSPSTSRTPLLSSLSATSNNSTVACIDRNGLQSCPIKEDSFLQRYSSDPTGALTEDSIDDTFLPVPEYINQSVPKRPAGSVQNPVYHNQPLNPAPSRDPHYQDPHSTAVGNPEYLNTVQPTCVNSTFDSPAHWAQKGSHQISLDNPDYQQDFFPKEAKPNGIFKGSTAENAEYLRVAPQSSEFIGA
# test: Inhibitor activity on EGFR-dependent cell growth (CellTiter-Glo, 72 h), Ba/F3 EGFR WT
# experimental-parameters: read-out: BaF3 WT IC50
endpoint: IC50

compound: CNC(=O)N1CC[C@@]2(CNC(=O)c3c2[nH]c(-c2ccncc2F)c3Nc2cccc(Cl)c2OC)C1
test-value: > 1000 nM
//
compound: COc1cccc(Nc2c(-c3ccnc(N)n3)[nH]c3c2C(=O)NCC3)c1Cl
test-value: > 1000 nM
//
compound: COc1c(Cl)cc(F)cc1Nc1c(-c2ccnc(C)n2)[nH]c2c1C(=O)NC[C@@H]2C[C@@H]1COCCO1
test-value: 100 to 1000 nM
//
compound: COc1c(Cl)cccc1Nc1c(-c2ccncc2F)[nH]c2c1C(=O)NC[C@]21CCN(CC(F)(F)F)C1
test-value: > 1000 nM
//
compound: COc1c(Cl)cccc1Nc1c(-c2ccncc2F)[nH]c2c1C(=O)NC[C@H]2C[C@@H]1COCCO1 (single isomer, unassigned)
test-value: > 1000 nM
//
compound: C=CC(=O)N1CCC2(CC1)CNC(=O)c1c2[nH]c(-c2ccncc2F)c1Nc1ccc(F)c(Cl)c1
test-value: 100 to 1000 nM
//
compound: COc1c(Cl)cccc1Nc1c(-c2ccnc3cnc(OCCCN4CCOCC4)nc23)[nH]c2c1C(=O)NCC2
test-value: > 1000 nM

====

# subject-of-test: EGFR WT (Ba/F3 cells) (Homo sapiens, UniProt P00533)
# test: Inhibitor activity on EGFR-dependent cell growth (CellTiter-Glo, 72 h), Ba/F3 EGFR WT
# experimental-parameters: read-out: BaF3 WT IC50
pIC50: −log10 of the molar value.
# reported pIC50; entries follow
endpoint: pIC50

compound: COc1c(Cl)cccc1Nc1c(-c2ccnc3[nH]c(=O)oc23)[nH]c2c1C(=O)NCC2 [compound 293]
endpoint: pIC50
test-value: < 6.00

compound: COCC[C@H]1CNC(=O)c2c1[nH]c(-c1ccncc1F)c2Nc1cccc(F)c1OC [421a]
endpoint: pIC50
test-value: < 6.00

compound: COc1c(Cl)cccc1Nc1c(-c2ccnc(NC[C@H]3COCCO3)n2)[nH]c2c1C(=O)NCC2 [compound 723]
endpoint: pIC50
test-value: < 6.00

compound: C=CC(=O)N1CCC2(CC1)CNC(=O)c1c2[nH]c(-c2ccncc2F)c1Nc1cc(F)cc(Cl)c1OC [Compound 559]
endpoint: pIC50
test-value: > 7.00

compound: COc1c(Cl)cccc1Nc1c(-c2ccnc3ccc(OCC4(C(F)(F)F)CC4)nc23)[nH]c2c1C(=O)NCC2 [compound 758]
endpoint: pIC50
test-value: 6.00 to 7.00

compound: COc1c(Cl)cccc1Nc1c(-c2ccnc3ccc(OC[C@H]4CCO4)nc23)[nH]c2c1C(=O)NCC2 [compound 734]
endpoint: pIC50
test-value: 6.00 to 7.00

compound: Cc1cccc(F)c1Nc1c(-c2ccnc(N)n2)[nH]c2c1C(=O)NCC2 [compound 198]
endpoint: pIC50
test-value: < 6.00

compound: COc1c(F)cccc1Nc1c(-c2ccncc2F)[nH]c2c1C(=O)NCC2 [compound 418]
endpoint: pIC50
test-value: < 6.00

compound: CCOc1c(Cl)cccc1Nc1c(-c2ccnc(N)n2)[nH]c2c1C(=O)NCC2 [Compound 700, trifluoroacetic acid]
endpoint: pIC50
test-value: < 6.00

compound: COc1c(Cl)cccc1Nc1c(-c2ccnc(NC3CC(F)(F)C3)n2)[nH]c2c1C(=O)NCC2 [Compound 712]
endpoint: pIC50
test-value: < 6.00

compound: COc1c(F)cccc1Nc1c(-c2ccnc(Nc3cnnn3C)n2)[nH]c2c1C(=O)NCC2 [compound 591]
endpoint: pIC50
test-value: 6.00 to 7.00

compound: COCC[C@H]1CNC(=O)c2c1[nH]c(-c1ccncc1F)c2Nc1cccc(F)c1C [compound 824]
endpoint: pIC50
test-value: < 6.00

compound: COc1c(Cl)cccc1Nc1c(-c2ccnc3ccc(OC4CC4)nc23)[nH]c2c1C(=O)NCC21CC1 [compound 323]
endpoint: pIC50
test-value: 6.00 to 7.00

compound: COc1c(F)cccc1Nc1c(-c2ccnc(C)n2)[nH]c2c1C(=O)NCC2C[C@@H]1COCCO1 (single isomer, unassigned) [Compound 605]
endpoint: pIC50
test-value: < 6.00

compound: Cc1c(F)cccc1Nc1c(-c2ccnc(N)c2F)[nH]c2c1C(=O)NCC2 [Compound 692]
endpoint: pIC50
test-value: 6.00 to 7.00
